- System: NALM-6
- test details: Cytotoxicity against human NALM6 cells after 46 hrs by MTT assay
- Assay type: functional, cell-based
- condition details: NALM-6, 46 h
Overview of reported pIC50 across a group of compounds:
Remember the convention: pIC50 equals -log10 of concentration in molar.

Here's what some known entries look like.
# compound, pIC50
rows = [
    ("O=c1c(Cc2ccc(F)cc2)coc2ccccc12", 5.09),
    ("O=C1/C(=C/c2ccccc2)C(c2ccccc2)Oc2ccc(O)cc21 (configuration not stated)", 5.06),
    ("O=c1c(Cc2ccc([N+](=O)[O-])cc2)coc2ccccc12", 5.30),
    ("N#Cc1ccc(Cc2coc3ccccc3c2=O)cc1", 5.32),
    ("O=C1/C(=C/c2ccccc2)COc2ccccc21", 5.21),
]

Lookup: Recall the reported pIC50 of O=C1/C(=C/c2ccc(O)cc2)COc2ccccc21 on NALM-6 and write it down.
Found: 4.49
